- systemTested: ALK L1196M (Homo sapiens (Human), UniProt Q9UM73, L1196M)
- Sequence (Q9UM73 19-1620 L1196M): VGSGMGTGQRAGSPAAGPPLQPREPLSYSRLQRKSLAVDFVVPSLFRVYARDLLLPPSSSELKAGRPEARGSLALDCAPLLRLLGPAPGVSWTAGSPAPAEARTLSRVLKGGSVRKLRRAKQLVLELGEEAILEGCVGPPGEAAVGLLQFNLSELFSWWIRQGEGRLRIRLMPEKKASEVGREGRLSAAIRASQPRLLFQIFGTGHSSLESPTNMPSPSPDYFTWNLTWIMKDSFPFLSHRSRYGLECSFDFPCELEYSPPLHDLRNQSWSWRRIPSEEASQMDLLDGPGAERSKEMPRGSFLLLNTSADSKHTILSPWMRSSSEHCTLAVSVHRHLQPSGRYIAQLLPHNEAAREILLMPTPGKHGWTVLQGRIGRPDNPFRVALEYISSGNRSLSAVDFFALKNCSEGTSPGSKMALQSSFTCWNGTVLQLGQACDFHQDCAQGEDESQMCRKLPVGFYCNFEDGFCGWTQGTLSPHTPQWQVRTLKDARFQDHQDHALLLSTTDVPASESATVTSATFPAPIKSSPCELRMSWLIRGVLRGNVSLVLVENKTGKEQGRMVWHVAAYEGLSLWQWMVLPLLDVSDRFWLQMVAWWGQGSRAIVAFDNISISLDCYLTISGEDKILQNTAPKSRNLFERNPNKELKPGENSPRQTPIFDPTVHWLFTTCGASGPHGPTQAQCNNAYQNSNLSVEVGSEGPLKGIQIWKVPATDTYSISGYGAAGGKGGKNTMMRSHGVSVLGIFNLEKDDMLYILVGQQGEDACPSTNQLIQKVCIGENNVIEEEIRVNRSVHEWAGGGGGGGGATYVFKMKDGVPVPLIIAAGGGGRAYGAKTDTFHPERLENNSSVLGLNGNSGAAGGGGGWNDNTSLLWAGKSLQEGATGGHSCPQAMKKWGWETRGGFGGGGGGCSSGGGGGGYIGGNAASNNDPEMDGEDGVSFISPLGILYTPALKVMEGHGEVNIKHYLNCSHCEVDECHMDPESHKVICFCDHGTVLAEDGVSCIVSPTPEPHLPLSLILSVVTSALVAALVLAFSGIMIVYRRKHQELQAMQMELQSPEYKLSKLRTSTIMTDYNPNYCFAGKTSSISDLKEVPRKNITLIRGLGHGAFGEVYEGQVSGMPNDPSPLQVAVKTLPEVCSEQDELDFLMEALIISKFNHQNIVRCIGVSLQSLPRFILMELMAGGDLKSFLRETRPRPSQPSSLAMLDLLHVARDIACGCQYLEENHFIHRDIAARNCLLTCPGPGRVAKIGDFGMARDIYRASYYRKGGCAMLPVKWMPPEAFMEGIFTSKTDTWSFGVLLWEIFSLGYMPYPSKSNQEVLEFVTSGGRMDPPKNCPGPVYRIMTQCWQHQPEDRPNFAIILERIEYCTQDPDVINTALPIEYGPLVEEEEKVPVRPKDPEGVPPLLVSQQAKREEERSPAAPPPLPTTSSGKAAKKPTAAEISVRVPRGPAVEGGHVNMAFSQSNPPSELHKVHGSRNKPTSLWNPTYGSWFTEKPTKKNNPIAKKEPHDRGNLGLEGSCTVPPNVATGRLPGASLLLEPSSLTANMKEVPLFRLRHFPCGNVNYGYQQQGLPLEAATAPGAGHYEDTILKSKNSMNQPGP
- assayRemarks: Inhibition of ALK L1196M kinase activity (Caliper mobility shift)
Task for the reader: assign each of the following compounds its reported IC50.

Sample records with IC50:
# cpdSmiles, experimentalReadout, observed
rows = [
    ("COc1cc(N2CCC(N(C)C)CC2)ccc1Nc1ncc(Cl)c(Nc2cccnc2S(=O)(=O)C(C)C)n1", "IC50", "1 to 10 nM"),
    ("CCOc1cc(N2CCC(N(C)C)CC2)ccc1Nc1ncc(Cl)c(Nc2cccnc2S(=O)(=O)C(C)C)n1", "IC50", "1 to 10 nM"),
    ("COc1cc(C2=CCN(C(C)C)CC2)ccc1Nc1ncc(Cl)c(Nc2cccnc2S(=O)(=O)C(C)C)n1", "IC50", "1 to 10 nM"),
    ("COc1cc(N2CCC(N(C)C)CC2)ccc1Nc1ncc(OC(F)F)c(Nc2ccccc2S(=O)(=O)C(C)C)n1", "IC50", "< 1 nM"),
    ("COc1cc(N2CCC(N3CCOCC3)CC2)ccc1Nc1ncc(Cl)c(Nc2cccnc2S(=O)(=O)C(C)C)n1", "IC50", "1 to 10 nM"),
    ("COc1cc(N2CCC(N3CCC(N(C)C)CC3)CC2)ccc1Nc1ncc(Cl)c(Nc2ccsc2S(=O)(=O)C(C)C)n1", "IC50", "1 to 10 nM"),
]

Q: Give IC50 for the following compound: "Cc1cc(Nc2ncc(Cl)c(Nc3ccccc3S(=O)(=O)C(C)C)n2)c(OC(F)F)cc1N1CCC(N(C)C)CC1"
A: < 1 nM

---

- systemTested: ALK L1196M (Homo sapiens (Human), UniProt Q9UM73, L1196M)
- assayRemarks: Inhibition of ALK L1196M kinase activity (Caliper mobility shift)
- Assay type: biochemical
experimentalReadout: IC50

# molecule, experimentalReadout, observed
measured = [
    ("COc1cc(N2CCC(O)CC2)ccc1Nc1ncc(Cl)c(Nc2cccnc2S(=O)(=O)C(C)C)n1 [Compound I-9]", "IC50", "1 to 10 nM"),
    ("CC(C)Oc1cc(N2CCC(N(C)C)CC2)ccc1Nc1ncc(Cl)c(Nc2cccnc2S(=O)(=O)C(C)C)n1 [Compound I-91]", "IC50", "1 to 10 nM"),
]

Dear reader, for each entry below, please note its IC50.
1. COc1cc(N2CCC(N(C)C)CC2)c(C)cc1Nc1ncc(Cl)c(Nc2cccnc2S(=O)(=O)C(C)C)n1 [Compound I-98]
2. CC(C)Oc1cc(N2CCC(N(C)C)CC2)ccc1Nc1ncc(Cl)c(Nc2ccsc2S(=O)(=O)C(C)C)n1 [Compound I-82]
3. COc1cc(N2CCC(N3CCN(C)CC3)CC2)ccc1Nc1ncc(Cl)c(Nc2cccnc2S(=O)(=O)C(C)C)n1 [Compound I-10]
4. COc1cc(N2CCC(N3CC(C)OC(C)C3)CC2)ccc1Nc1ncc(Cl)c(Nc2ccccc2S(=O)(=O)C(C)C)n1 (stereo not shown) [Compound I-17]
5. COc1cc(C2=CCN(C)CC2)ccc1Nc1ncc(Cl)c(Nc2cccnc2S(=O)(=O)C(C)C)n1 [Compound I-84]

A:
1: < 1 nM; 2: < 1 nM; 3: 1 to 10 nM; 4: 1 to 10 nM; 5: 1 to 10 nM

---

pIC50: −log10 of the molar value.
Endpoint: pIC50. System: UniProtKB Q9UM73. Items follow.

# compound, experimentalReadout, observed
measured = [
    ("COc1cc(N2CCN(C(C)C)CC2)ccc1Nc1ncc(Cl)c(Nc2cccnc2S(=O)(=O)C(C)C)n1 [Compound I-23]", "pIC50", "8.00 to 9.00"),
    ("COc1cc(CN2CCC(N(C)C)CC2)ccc1Nc1ncc(Cl)c(Nc2ccccc2S(=O)(=O)C(C)C)n1 [Compound I-109]", "pIC50", "8.00 to 9.00"),
    ("COc1cc(N2CCC(N3CCOCC3)CC2)ccc1Nc1ncc(Cl)c(Nc2cccnc2S(=O)(=O)C(C)C)n1 [Compound I-7]", "pIC50", "8.00 to 9.00"),
    ("COc1cc(C2=CCN(C(C)C)CC2)ccc1Nc1ncc(Cl)c(Nc2cccnc2S(=O)(=O)C(C)C)n1 [Compound I-85]", "pIC50", "8.00 to 9.00"),
]

For each of the compounds below, note its pIC50.
1. COc1cc(N2CCC(N(C)C)CC2)c(C)cc1Nc1ncc(Cl)c(Nc2cccnc2S(=O)(=O)C(C)C)n1 [Compound I-98]
2. COc1cc(N2CCN(C(C)C)CC2)c(C)cc1Nc1ncc(OC(F)F)c(Nc2ccccc2S(=O)(=O)C(C)C)n1 [Compound I-115]
3. COc1cc(N2CCN(C)CC2)ccc1Nc1ncc(Cl)c(Nc2cccnc2S(=O)(=O)C(C)C)n1 [Compound I-5]
4. COc1cc(N2CCC(N(C)C)CC2)ccc1Nc1ncc(OC(F)F)c(Nc2ccccc2S(=O)(=O)C(C)C)n1 [Compound I-111]
5. COc1cc(C2=CCNCC2)c(C)cc1Nc1ncc(Cl)c(Nc2cccnc2S(=O)(=O)C(C)C)n1 [Compound I-89]
6. COc1cc(CN2CCC(N(C)C)CC2)ccc1Nc1ncc(OC(F)F)c(Nc2ccccc2S(=O)(=O)C(C)C)n1 [Compound I-103]
7. COc1cc(N2CCN(C(C)C)CC2)c(C)cc1Nc1ncc(Cl)c(Nc2cccnc2S(=O)(=O)C(C)C)n1 [Compound I-88]

A:
1. > 9.00
2. > 9.00
3. 8.00 to 9.00
4. > 9.00
5. 8.00 to 9.00
6. 8.00 to 9.00
7. 8.00 to 9.00

Please look at the items below and tell me pIC50 for each one, in order.
1. Cc1cc(Nc2ncc(Cl)c(Nc3ccccc3S(=O)(=O)C(C)C)n2)c(OC(F)F)cc1N1CCC(N(C)C)CC1 [Compound I-102]
2. COc1cc(N2CCC(N3CCC(N(C)C)CC3)CC2)ccc1Nc1ncc(Cl)c(Nc2ccsc2S(=O)(=O)C(C)C)n1 [Compound I-18]
3. COc1cc(N2CCC(N(C)C)CC2)c(C)cc1Nc1ncc(OC(F)F)c(Nc2ccccc2S(=O)(=O)C(C)C)n1 [Compound I-112]
4. COc1cc(N2CCC(N3CC(C)OC(C)C3)CC2)ccc1Nc1ncc(Cl)c(Nc2ccccc2S(=O)(=O)C(C)C)n1 (stereo not shown) [Compound I-17]

A:
1. 8.00 to 9.00
2. 8.00 to 9.00
3. > 9.00
4. 8.00 to 9.00

I'm hoping you can list pIC50 for every compound here, please.
1. COc1cc(N2CCC(O)CC2)ccc1Nc1ncc(Cl)c(Nc2cccnc2S(=O)(=O)C(C)C)n1 [Compound I-9]
2. CC(C)Oc1cc(N2CCC(N(C)C)CC2)ccc1Nc1ncc(Cl)c(Nc2cccnc2S(=O)(=O)C(C)C)n1 [Compound I-91]
3. COc1cc(CN2CCC(N(C)C)CC2)ccc1Nc1ncc(Cl)c(Nc2ccccc2S(=O)(=O)C(C)C)n1 [Compound I-110]
4. COc1cc(N2CCC(N(C)C)CC2)ccc1Nc1ncc(Cl)c(Nc2cccnc2S(=O)(=O)C(C)C)n1 [Compound I-6]

A:
1: 8.00 to 9.00; 2: 8.00 to 9.00; 3: 8.00 to 9.00; 4: 8.00 to 9.00

For every record below, what is its pIC50?
1. COc1cc(C2=CCN(C(C)C)CC2)c(C)cc1Nc1ncc(Cl)c(Nc2cccnc2S(=O)(=O)C(C)C)n1 [Compound I-80]
2. CC(C)Oc1cc(N2CCC(N(C)C)CC2)ccc1Nc1ncc(OC(F)F)c(Nc2ccccc2S(=O)(=O)C(C)C)n1 [Compound I-113]
3. CC(C)Oc1cc(N2CCC(N(C)C)CC2)ccc1Nc1ncc(Cl)c(Nc2ccsc2S(=O)(=O)C(C)C)n1 [Compound I-82]
4. COc1cc(N2CCC(N3CCN(C)CC3)CC2)ccc1Nc1ncc(Cl)c(Nc2cccnc2S(=O)(=O)C(C)C)n1 [Compound I-10]
5. COc1cc(N2CCC(N3CC(C)OC(C)C3)CC2)ccc1Nc1ncc(Cl)c(Nc2cccnc2S(=O)(=O)C(C)C)n1 (stereo not shown) [Compound I-12]
6. CCOc1cc(N2CCC(N(C)C)CC2)ccc1Nc1ncc(Cl)c(Nc2cccnc2S(=O)(=O)C(C)C)n1 [Compound I-92]
7. COc1cc(N2CCC(N3CCN(C)CC3)CC2)ccc1Nc1ncc(Cl)c(Nc2ccsc2S(=O)(=O)C(C)C)n1 [Compound I-11]

A:
8.00 to 9.00
> 9.00
> 9.00
8.00 to 9.00
8.00 to 9.00
8.00 to 9.00
8.00 to 9.00

Please look at the items below and tell me pIC50 for each one, in order.
1. CC(C)S(=O)(=O)c1ncccc1Nc1nc(Nc2ccc(N3CCC(N(C)C)CC3)cc2OC(F)F)ncc1Cl [Compound I-100]
2. COc1cc(C2=CCN(C)CC2)ccc1Nc1ncc(Cl)c(Nc2cccnc2S(=O)(=O)C(C)C)n1 [Compound I-84]

A:
1: 8.00 to 9.00; 2: 8.00 to 9.00

Every entry's value here was drawn from patent US10695347B2.
